target: FPTase (farnesyl-protein transferase) with H-Ras as substrate for farnesylation (UniProt P29702+P49355); test: in vitro FTase Inhibition Assay (H-Ras substrate)
Reported Endpoint: IC50 (µM)
Report the value in µM with no unit label.

Tell me the measured IC50 of Cc1ccc(S(=O)(=O)C2(Cc3cccc(C4(c5cccs5)OCCO4)c3)SC(=O)NC2=O)cc1 (stereo not shown) [Example 26] , please. 6

Also check Cc1ccc(S(=O)(=O)C2(Cc3ccc(Br)cc3F)SC(=O)NC2=O)cc1 (stereo not shown) [Example 2] 6.5

Also check COc1ccc(Cc2cccc(CC3(Sc4ccc(C)cc4)SC(=O)NC3=O)c2)cc1 (stereo not shown) [Example 17] 2.9

Also check COc1ccc(C2(c3cccc(CC4(Sc5ccc(C)cc5)SC(=O)NC4=O)c3)OCCO2)cc1 (stereo not shown) [Example 8] 1.3

----------
biological target: FPTase (farnesyl-protein transferase) with H-Ras as substrate for farnesylation (UniProt P29702+P49355); assay: in vitro FTase Inhibition Assay (H-Ras substrate); type: biochemical; conditions: at 10 μM
Reported Endpoint: Activity* (% inhib. at 10 μM)

Known results for compounds:
# Compound, Activity* (% inhib. at 10 μM)
measured = [
    ("Cc1oc(-c2ccccc2)nc1CCOc1ccc(CC2(S(=O)(=O)c3ccc4ccccc4c3)SC(=O)NC2=O)cc1 (stereo not drawn)", "(−2%)"),
    ("Cc1ccc(S(=O)(=O)C2(Cc3ccc(Br)cc3)SC(=O)NC2=O)cc1 (stereo not drawn)", "(28%)"),
    ("Cc1ccc(S(=O)(=O)C2(Cc3ccc(-c4ccccc4-c4nnn[nH]4)cc3)SC(=O)NC2=O)cc1 (stereo not drawn)", "(4%)"),
    ("COc1ccc(S(=O)(=O)C2(Cc3ccccc3)SC(=O)NC2=O)cc1 (stereo not drawn)", "(21%)"),
    ("Cc1ccc(S(=O)(=O)C2(Cc3ccc(Cl)c(Cl)c3)SC(=O)NC2=O)cc1 (stereo not drawn)", "(1%)"),
]

// moving on: another record for Activity* (% inhib. at 10 μM)
Tell me the measured Activity* (% inhib. at 10 μM) of O=C1NC(=O)C(Cc2ccc(Br)cc2F)(S(=O)(=O)c2ccc3ccccc3c2)S1 (stereo not drawn) , please. (1%)

----------
biological target: FPTase (farnesyl-protein transferase) with H-Ras as substrate for farnesylation (UniProt P29702+P49355); assay: in vitro FTase Inhibition Assay (H-Ras substrate)
Reported Endpoint: IC50 (nM)
Report the value in nM with no unit label.

Tell me the measured IC50 of COc1ccc(S(=O)(=O)C2(Cc3ccccc3)SC(=O)N(CC(=O)NO)C2=O)cc1 (stereo not shown) [Example 7] , please. 2500

Also check COc1ccc(S(=O)(=O)C2(Cc3ccc(-c4ccc(Cl)cc4)cc3)SC(=O)NC2=O)cc1 (stereo not shown) [Example 21] 1000

Also check COc1ccc(C(=O)c2cccc(CC3(S(=O)(=O)c4ccc(C)cc4)SC(=O)NC3=O)c2)cc1 (stereo not shown) [Example 10] 4250

Also check COc1ccc(S(=O)(=O)C2(Cc3ccc(-c4cccc(C(F)(F)F)c4)cc3)SC(=O)NC2=O)cc1 (stereo not shown) [Example 22] 2500

Also check COc1ccc(C(=O)c2cccc(CC3(Sc4ccc(C)cc4)SC(=O)NC3=O)c2)cc1 (stereo not shown) [Example 11] 2500

Also check Cc1ccc(SC2(Cc3cccc(Oc4cccc(Cl)c4)c3)SC(=O)NC2=O)cc1 (stereo not shown) [Example 25] 3500

Also check Cc1ccc(SC2(Cc3cccc(C(=O)c4cccs4)c3)SC(=O)NC2=O)cc1 (stereo not shown) [Example 19] 2800

Also check COc1ccc(S(=O)(=O)C2(Cc3ccc(-c4ccc(Cl)cc4Cl)cc3)SC(=O)NC2=O)cc1 (stereo not shown) [Example 24] 740

Also check COc1ccc(S(=O)(=O)C2(Cc3ccc(-c4ccccc4C#N)cc3)SC(=O)NC2=O)cc1 (stereo not shown) [Example 16] 350

Also check Cc1ccc(S(=O)(=O)C2(Cc3ccc(OCCc4nc(-c5ccccc5)oc4C)cc3)SC(=O)NC2=O)cc1 (stereo not shown) [Example 1] 2250

Also check Cc1ccc(SC2(Cc3cccc(C4(c5cccs5)OCCO4)c3)SC(=O)NC2=O)cc1 (stereo not shown) [Example 18] 4500

Also check COc1ccc(C(O)c2cccc(CC3(Sc4ccc(C)cc4)SC(=O)NC3=O)c2)cc1 (stereo not shown) [Example 12] 3700

Also check Cc1ccc(S(=O)(=O)C2(Cc3ccc(-c4ccccc4C#N)cc3)SC(=O)NC2=O)cc1 (stereo not shown) [Example 14] 77

Also check COc1ccc(C2(c3cccc(CC4(S(=O)(=O)c5ccc(C)cc5)SC(=O)NC4=O)c3)OCCO2)cc1 (stereo not shown) [Example 9] 1200

Also check COc1ccc(S(=O)(=O)C2(Cc3ccc(-c4ccccc4)cc3)SC(=O)NC2=O)cc1 (stereo not shown) [Example 20] 1700

----------
Please provide measured melting point for the entries that follow.

Tell me the measured melting point of Cc1oc(-c2ccccc2)nc1CCOc1ccc(CC2(S(=O)(=O)c3ccc4ccccc4c3)SC(=O)NC2=O)cc1 (stereo not shown) , please. 133 to 136 °C

Also check Cc1ccc(S(=O)(=O)C2(Cc3ccc(Cl)c(Cl)c3)SC(=O)NC2=O)cc1 (stereo not shown) 183 to 184 °C

Also check COc1ccc(S(=O)(=O)C2(Cc3ccc(-c4ccccc4)cc3)SC(=O)NC2=O)cc1 (stereo not shown) 119 to 122 °C

Also check COc1ccc(S(=O)(=O)C2(Cc3ccc(-c4cc(C(F)(F)F)cc(C(F)(F)F)c4)cc3)SC(=O)NC2=O)cc1 (stereo not shown) 122 to 125 °C

Also check Cc1ccc(S(=O)(=O)C2(Cc3ccc(OCCc4nc(-c5ccccc5)oc4C)cc3)SC(=O)NC2=O)cc1 (stereo not shown) 202 to 204 °C

Also check COc1ccc(S(=O)(=O)C2(Cc3ccc(-c4ccc(Cl)cc4)cc3)SC(=O)NC2=O)cc1 (stereo not shown) 197 to 200 °C

Also check O=C1NC(=O)C(Cc2ccc(Br)cc2F)(S(=O)(=O)c2ccc3ccccc3c2)S1 (stereo not shown) 195 to 197 °C

Also check Cc1ccc(S(=O)(=O)C2(Cc3ccc(Br)cc3F)SC(=O)NC2=O)cc1 (stereo not shown) 236 to 237 °C

Also check COc1ccc(S(=O)(=O)C2(Cc3ccc(-c4ccc(Cl)cc4Cl)cc3)SC(=O)NC2=O)cc1 (stereo not shown) 104 to 107 °C

Also check COc1ccc(S(=O)(=O)C2(Cc3ccccc3)SC(=O)NC2=O)cc1 (stereo not shown) 146 to 152 °C
